- protocol_notes: Short-term in vivo model: serum calcium levels
- Parameters: species or system mice
- setup_conditions: 10 mg/kg intraperitoneally, after 4 days, n=3, FIG. 5D

{"input_smiles": "C[C@H](CCC(F)(F)C(C)(C)O)[C@H]1CC[C@H]2/C(=C/Cn3nnc(-c4ccc(F)cc4)n3)CCC[C@]12C", "serum calcium levels": "no detectable increase"}
{"input_smiles": "C[C@H](CCC(F)(F)C(C)(C)O)[C@H]1CC[C@H]2/C(=C/Cn3nnnc3-c3ccccc3)CCC[C@]12C", "serum calcium levels": "no detectable increase"}

Origin of measurements: patent US11932595B2
